# testTarget: EGLN3
# protocol: cell-based or functional assay
Where no end group is shown, it is not given here.
Response field label: string, one of Satisfied (Activity (%)* strictly below 60%) or Not satisfied.

Past entries and their recorded results:
Data request: Confirm or reject: Activity (%)* of DTDLDLEAWAPYIPADDDFQ (not fully specified; printed as DTDLDLEAWApYIPADDDFQ) [DTDLDLEAWApYIPADDDFQ] lies strictly below 60%
Data returned: Satisfied

Data request: Would you mind doing DTDLDLEATAPYIPADDDFQ [DTDLDLEATApYIPADDDFQ] as well?
Data returned: Not satisfied

Data request: Entry DTDLDLEMLLPYIPMDDDFQ (not fully specified; printed as DTDLDLEMLLpYIPMDDDFQ) [DTDLDLEMLLpYIPMDDDFQ] please
Data returned: Satisfied

Data request: Then DTDLDLEMLHPYIPMDDDFQ (not fully specified; printed as DTDLDLEMLHpYIPMDDDFQ) [DTDLDLEMLHpYIPMDDDFQ] ?
Data returned: Not satisfied

Data request: Now the binder DTDLDLEMLIPYIPMDDDFQ (not fully specified; printed as DTDLDLEMLIpYIPMDDDFQ) [DTDLDLEMLIpYIPMDDDFQ]
Data returned: Not satisfied

---
Data request: State whether 60% exceeds Activity (%)* recorded for DTDLDIEAIAPYIPADDDFQ [DTDLDIEAIApYIPADDDFQ] .
Data returned: Not satisfied

Data request: Then this binder: DTDLDLEACAPYIPADDDFQ [DTDLDLEACApYIPADDDFQ]
Data returned: Satisfied

Data request: Record: DTDLDVEAYAPYIPADDDFQ (not fully specified; printed as DTDLDVEAYApYIPADDDFQ) [DTDLDVEAYApYIPADDDFQ]
Data returned: Satisfied

Data request: What do you get for DTDLDWEALAPYIPADDDFQ (not fully specified; printed as DTDLDWEALApYIPADDDFQ) [DTDLDWEALApYIPADDDFQ] ?
Data returned: Not satisfied

Data request: Then this binder: DTDLDLEARAPYIPADDDFQ [DTDLDLEARApYIPADDDFQ]
Data returned: Not satisfied
